Assay: yeast display, Sf9 membrane polyspecificity reagent, FACS + sequencing; frameworks hold sequencing errors
readout_label: polyreactivity (PSR sort gate)

1) QVQLVESGGGLVQAGGSLRLSCAASGRIFNSNTMGWYRQAPGKERELVAAITYSGGSTYYADSVKGRFSISRDNAKNTVYLQMNSLKPEDTAVYYCAASYYYGRRYDYWGQGTQVTVSS; low polyreactivity
2) QVQLVESGGGLVQAGGSLRLSCAASGSIFRKNAMGWYRQAPGKERELVAAITCTGRTTYADSVKGRFTISRDNAKNTVYLQMNSLKPEDTAVYYCAADVNYYQHRLYYWGQGTQVTVSS; low polyreactivity

###

Test: yeast display, Sf9 membrane polyspecificity reagent, FACS + sequencing; frameworks hold sequencing errors
readout_label: polyreactivity (PSR sort gate)

1) QVQLVESGGGLVQAGGSLRLSCAASGITFAYYTMGWYRQAPGKERELVAGISSSGGRTYYADSVKGRFTISRDNAKNTVYLQMNSLKPEDTAVYYCAARFGYRGSTYTLTYGYWGQGTQVTVSS; high polyreactivity
2) QVQLVETGGGLVQAGGSLRLSCAASGYIFGYVMGWYRQAPGKERELVAAITYSSGNTYYADSVKGRFTISRDNAKNTVYLQMNSLKPEDTAVYYCAKQAYYKGRLAYGYWGQGTQVTVSS; high polyreactivity
